# System: P388 leukemia ip, CD2F1 mice, survival T/C
# Assay Remarks: NCI In Vivo Anticancer Drug Screen. Data for tumor model P388 Leukemia (intraperitoneal) in CD2F1 (CDF1) mice
# Details: endpoint: median survival time; dose: 200.0 mg/kg/injection; schedule: Q01DX009 (ip); vehicle: saline with Tween-80; higher = longer survival
Toxic doses and inconclusive results are not listed.
Reported Endpoint: T/C

# count of solved cases: 5
Molecule	Tested Target	T/C
COC(=O)c1cc2cccn2cn1	P388 leukemia ip, CD2F1 mice, survival T/C	100 % of control
C=C/C=C/NC(=O)OCc1ccccc1	P388 leukemia ip, CD2F1 mice, survival T/C	102 % of control
Cc1cccc(/C=N\N=C\c2cccc(C)n2)n1	P388 leukemia ip, CD2F1 mice, survival T/C	100 % of control
Cc1cc(O)c(C(c2ccc3c(c2)OCO3)c2c(O)cc(C)[nH]c2=O)c(=O)[nH]1	P388 leukemia ip, CD2F1 mice, survival T/C	95 % of control
CCOC(=O)NCCCBr	P388 leukemia ip, CD2F1 mice, survival T/C	107 % of control

Record T/C per entry; entries follow.
1. CN1CCC(=C2c3ccccc3C(=O)C(=O)c3sccc32)CC1
2. CCCCC(CC)COC1CCS(=O)(=O)C1 (stereo not drawn)
3. CCCCCCOCN(COCCCCCC)c1ccc(Cl)cc1
4. COC(=O)/C=C(\C)Oc1c(Cl)c(Cl)c(Cl)c(Cl)c1Cl

[out]
["111 % of control", "95 % of control", "118 % of control", "100 % of control"]
